test: in vitro; details: African green monkey, TC50, Table 4, Example 9; day 3
Property Measured: CC50

In one line, give reported CC50 of the entry CCC(C)(C)C(=O)C(=O)N1CCC[C@H]1C(=O)O .
> 320 µM

---

tested on: SARS CoV-2 (USA-WA1/2020); assay: organism not typed; assay type: cell-based; conditions: Vero C1008, 72 h, Table 4, Example 9; Vero E6, day 3
pEC50: −log10 of the molar value.
Property Measured: pEC50

In one line, give reported pEC50 of the entry CCC(C)(C)C(=O)C(=O)N1CCC[C@H]1C(=O)O [GPI-1485] .
< 3.49
